- System: Kidney 769-P
- EXPERIMENT NOTES: CellTiter Glo cell viability assay
- Assay type: cell-based
- CONDITIONS: Homo sapiens; 769-P/CRL-1933; 11 dilutions 3-0.00001 μM; read-out: IC50
Task for the reader: assign each of the following compounds its reported IC50.

Value of IC50 reported for the compound CCOc1cc(O)cc(/C=C/c2ccc(O)c(O)c2)c1CC=C(C)C is 174 nM

Value of IC50 reported for the compound CCOc1cc(O)cc(/C=C/c2ccc(NC=O)c(OC)c2)c1CC=C(C)C is 40.1 nM

Value of IC50 reported for the compound CCOc1cc(O)cc(/C=C/c2ccc(O)c(OC)c2)c1CC=C(C)C is 109 nM

Value of IC50 reported for the compound COc1cc(/C=C/c2cc(O)cc(OC)c2CC=C(C)C)ccc1NC=O is 110 nM

API: the following record is the query input.
Value of IC50 reported for the compound COc1cc(/C=C/c2cc(O)cc(OC)c2CC=C(C)C)ccc1O is 363 nM

====

- EXPERIMENT NOTES: Cell viability in PBMC IL-17 assay (assay number 1322)
- Assay type: cell-based, human
- CONDITIONS: human; maximum reduction of cell viability in PBMC IL-17 assay; read-out: Max Eff.: Viab (1322)
Task for the reader: assign each of the following molecules its reported cytotoxicity at 3 days.
One number for each entry, in %.

Observe how each entry below is paired with its result.
Value of cytotoxicity at 3 days reported for the molecule COc1cc(/C=C/c2cc(O)cc(OC)c2CC=C(C)C)ccc1NC(=O)CN [Compound 31] is 32

Value of cytotoxicity at 3 days reported for the molecule COc1cc(/C=C/c2cc(O)cc(OC)c2CC=C(C)C)ccc1O [Compound 1] is 50

Value of cytotoxicity at 3 days reported for the molecule CCOc1cc(O)cc(/C=C/c2ccc(O)c(O)c2)c1CC=C(C)C [Compound 20] is 47

Value of cytotoxicity at 3 days reported for the molecule COc1cc(/C=C/c2cc(O)cc(OC)c2CC=C(C)C)ccc1NC=O [Compound 27] is 52

Value of cytotoxicity at 3 days reported for the molecule CCOc1cc(O)cc(/C=C/c2ccc(O)c(OC)c2)c1CC=C(C)C [Compound 8] is 57

API: the following record is the query input.
Value of cytotoxicity at 3 days reported for the molecule CCOc1cc(O)cc(/C=C/c2ccc(NC(=O)C(=O)O)c(OC)c2)c1CC=C(C)C [Compound 35] is 18

====

Task for the reader: assign each of the following compounds its reported pIC50.
- Tested on: Lung A549
- EXPERIMENT NOTES: CellTiter Glo cell viability assay
- Assay type: cell-based, human
- CONDITIONS: Homo sapiens, A549, 72 h; 3 Days of treatment; 18 2-fold dilutions 5-0.00003 μM
Give bare numbers, as −log10 of the molar value.

Per the reported Lung A549 data, CCOc1cc(O)cc(/C=C/c2ccc(O)c(OC)c2)c1CC=C(C)C has pIC50 of 7.51

API: the following record is the query input.
Per the reported Lung A549 data, COc1cc(/C=C/c2cc(O)cc(OC)c2CC=C(C)C)ccc1O has pIC50 of 6.79

====

- System: Kidney Caki-2
- EXPERIMENT NOTES: CellTiter Glo cell viability assay
- Assay type: cell-based, human
- CONDITIONS: Homo sapiens; Caki-2/HTB-47; 11 dilutions 3-0.00001 μM; read-out: IC50
Response field label takes Criterion met when IC50 is strictly below 500 nM and Criterion not met in all other cases.

Recorded results for 3 molecules are shown here.
Incoming: Check if IC50 falls below 500 nM for CCOc1cc(O)cc(/C=C/c2ccc(NC=O)c(OC)c2)c1CC=C(C)C .
Outgoing: Criterion met

Incoming: Check if IC50 falls below 500 nM for CCOc1cc(O)cc(/C=C/c2ccc(O)c(OC)c2)c1CC=C(C)C .
Outgoing: Criterion not met

Incoming: Check if IC50 falls below 500 nM for COc1cc(/C=C/c2cc(O)cc(OC)c2CC=C(C)C)ccc1NC=O .
Outgoing: Criterion not met

***
Incoming: Check if IC50 falls below 500 nM for CCOc1cc(O)cc(/C=C/c2ccc(O)c(O)c2)c1CC=C(C)C .
Outgoing: Criterion met

Incoming: Check if IC50 falls below 500 nM for COc1cc(/C=C/c2cc(O)cc(OC)c2CC=C(C)C)ccc1O .
Outgoing: Criterion met

====

- System: Pharynx FADU
- EXPERIMENT NOTES: CellTiter Glo cell viability assay
- Format: cell-based, human
- CONDITIONS: Homo sapiens, FaDu, 72 h; 3 Days of treatment; 18 2-fold dilutions 5-0.00003 μM; read-out: Average IC50
PROPERTY MEASURED: pIC50
Numbers only, as −log10 of the molar value.

Value of pIC50 reported for the compound COc1cc(/C=C/c2cc(O)cc(OC)c2CC=C(C)C)ccc1O is 7.13

API: the following record is the query input.
Value of pIC50 reported for the compound CCOc1cc(O)cc(/C=C/c2ccc(O)c(OC)c2)c1CC=C(C)C is 7.43

====

- Test system: Bladder UMUC_3
- EXPERIMENT NOTES: CellTiter Glo cell viability assay
- Type: cell-based, human
- CONDITIONS: Homo sapiens, UMUC3; UM-UC-3/CRL-1749; 11 dilutions 3-0.00001 μM; read-out: IC50
PROPERTY MEASURED: IC50 (nM)
One number for each entry, in nM.

Value of IC50 reported for the compound CCOc1cc(O)cc(/C=C/c2ccc(NC=O)c(OC)c2)c1CC=C(C)C is 21.3

Value of IC50 reported for the compound COc1cc(/C=C/c2cc(O)cc(OC)c2CC=C(C)C)ccc1O is 333

Value of IC50 reported for the compound CCOc1cc(O)cc(/C=C/c2ccc(O)c(OC)c2)c1CC=C(C)C is 54.8

Give measured IC50 for every item shown.
1. CCOc1cc(O)cc(/C=C/c2ccc(O)c(O)c2)c1CC=C(C)C
2. COc1cc(/C=C/c2cc(O)cc(OC)c2CC=C(C)C)ccc1NC=O

Outgoing:
126
30.2

====

- Test system: Kidney A-498
- EXPERIMENT NOTES: CellTiter Glo cell viability assay
- Assay type: cell-based, human
- CONDITIONS: Homo sapiens, A498, 72 h, Table 4: 3 Days of treatment; 18 2-fold dilutions 5-0.00003 μM; Average (1, 8) or single Exp A-D
PROPERTY MEASURED: IC50 (nM)
Give bare numbers, in nM.

Per the reported Kidney A-498 data, CCOc1cc(C=Cc2cc(O)cc(OC)c2CC=C(C)C)ccc1O [Compound 12] has IC50 of 822

====

- System: primary human keratinocytes
- EXPERIMENT NOTES: Cell viability in keratinocyte IL-8 assay (assay number 1244)
- Type: cell-based
- CONDITIONS: Homo sapiens, Keratinocyte; cell viability in IL-8 assay; read-out: Abs EC50: Viab (1244)
PROPERTY MEASURED: pEC50
Give bare numbers, as −log10 of the molar value.

Observe how each entry below is paired with its result.
Value of pEC50 reported for the compound COc1cc(/C=C/c2cc(O)cc(OC)c2CC=C(C)C)ccc1O is 7.05

Value of pEC50 reported for the compound CCOc1cc(O)cc(/C=C/c2ccc(NC=O)c(OC)c2)c1CC=C(C)C is 7.46

Give measured pEC50 for every item shown.
1. CCOc1cc(O)cc(/C=C/c2ccc(O)c(O)c2)c1CC=C(C)C
2. CCOc1cc(O)cc(/C=C/c2ccc(O)c(OC)c2)c1CC=C(C)C

Outgoing:
6.66
7.49
